Target: Sphingosine 1-phosphate receptor 1 (Homo sapiens)
Sequence (P21453 whole entry): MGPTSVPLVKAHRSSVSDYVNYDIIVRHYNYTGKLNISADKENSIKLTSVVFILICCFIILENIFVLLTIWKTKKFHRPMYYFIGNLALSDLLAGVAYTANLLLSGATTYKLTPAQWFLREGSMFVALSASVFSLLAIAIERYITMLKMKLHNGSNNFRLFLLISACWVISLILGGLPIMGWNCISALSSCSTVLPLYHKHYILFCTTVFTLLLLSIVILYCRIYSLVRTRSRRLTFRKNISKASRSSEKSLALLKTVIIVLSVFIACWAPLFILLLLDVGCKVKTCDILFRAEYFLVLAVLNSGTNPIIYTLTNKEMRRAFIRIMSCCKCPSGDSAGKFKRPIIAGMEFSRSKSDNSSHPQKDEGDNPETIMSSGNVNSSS
Test: Agonist activity at human S1P1 receptor assessed as cAMP accumulation by HTRF assay
pEC50: −log10 of the molar value.
Y means recorded pEC50 is 9 or above; N means it is below 9.

compound: CCCc1ccc(COc2ccc3[nH]c4c(c3c2)CCC4CC(=O)O)cc1C(F)(F)F (racemic)
assignedLabel: Y

compound: CC(C)Cc1ccc(COc2ccc3[nH]c4c(c3c2)CCC4CC(=O)O)cc1C(F)(F)F (racemic)
assignedLabel: Y

compound: O=C(O)CC1CCc2c1[nH]c1ccc(OCc3ccc(C4CCC4)c(C(F)(F)F)c3)cc21 (racemic)
assignedLabel: Y

compound: CC(C)(C)Cc1ccc(COc2ccc3[nH]c4c(c3c2)CCC4CC(=O)O)cc1C(F)(F)F (racemic)
assignedLabel: N

compound: N#Cc1cc(COc2ccc3[nH]c4c(c3c2)CCC4CC(=O)O)ccc1C1CCCCC1 (racemic)
assignedLabel: Y

compound: O=C(O)C[C@H]1CCc2c1[nH]c1ccc(OCc3ccc(C4CCCC4)c(C(F)(F)F)c3)cc21
assignedLabel: Y

compound: N#Cc1ccc(COc2ccc3[nH]c4c(c3c2)CCC4CC(=O)O)cc1C(F)(F)F (racemic)
assignedLabel: N

compound: O=C(O)CC1CCc2c1[nH]c1ccc(OCc3ccc(C4CC4)c(C(F)(F)F)c3)cc21 (racemic)
assignedLabel: N

compound: O=C(O)C[C@@H]1CCc2c1[nH]c1ccc(OCc3ccc(C4CCCC4)c(C(F)(F)F)c3)cc21
assignedLabel: Y

compound: O=C(O)CC1CCc2c1[nH]c1ccc(OCc3ccc(CC4CCCCC4)c(C(F)(F)F)c3)cc21 (racemic)
assignedLabel: N

compound: O=C(O)CC1CCc2c1[nH]c1ccc(OCc3ccc(C4CCCCC4)c(C(F)(F)F)c3)cc21 (racemic)
assignedLabel: Y

compound: COc1ccc(COc2ccc3[nH]c4c(c3c2)CCC4CC(=O)O)cc1C#N (racemic)
assignedLabel: N

compound: CCCCCCCCCCCCC/C=C/[C@@H](O)[C@@H](N)COP(=O)(O)O
assignedLabel: Y

compound: O=C(O)CC1CCc2c1[nH]c1ccc(OCc3ccc(C4CCCC4)c(C(F)(F)F)c3)cc21 (racemic)
assignedLabel: Y

compound: O=C(O)CC1CCc2c1[nH]c1ccc(OCc3ccc(Cl)c(C(F)(F)F)c3)cc21 (racemic)
assignedLabel: N

Data credit: ChEMBL document CHEMBL3352115
